The reported numbers originate from PubChem BioAssay AID1996.

Catalogue of solubility kinetic values
- Details: buffer; pH 7.4; 200.0 µM

These solved cases illustrate the format of a correct answer.
| Molecule | solubility kinetic |
| --- | --- |
| Cc1ccc(NC(=O)CCSc2ccccc2)c(C)c1 | < 0.6 µg/mL |
| O=C(NCc1cccnc1)C1CCN(S(=O)(=O)c2cc([N+](=O)[O-])ccc2Cl)CC1 | > 65.8 µg/mL |
| Cc1ccc(OCC(=O)N2CC(C)OC(C)C2)c([N+](=O)[O-])n1 (centres undefined) | > 46.4 µg/mL |

Let's switch to this molecule now.
Entry Cc1cccc(Cn2cnc3c(sc4nc(C)cc(C)c43)c2=O)c1 , solubility kinetic reported as < 0.2 µg/mL
